Reported values of % Cell Death for individual entries
Measurement protocol: MMV: MTT Cytotoxicity Assay Day 3 pi, U87-CD4-CCR5 cells, % cell death @ 5mM compound
Format: toxicity, cell-based
Condition set: human, u87-cd4-ccr5, 5000 µM
Endpoint: % Cell Death

- Molecule: "CC1CN(C(=O)c2sc3ccccc3c2Cl)CC(C)O1 (stereo unspecified)"
  Endpoint: "% Cell Death"
  Reported measurement: 107
- Molecule: "Cc1ccc(F)cc1NC(=O)c1cc(Cl)ccc1Nc1ccccc1"
  Endpoint: "% Cell Death"
  Reported measurement: 7
- Molecule: "Cc1sc(NC(=O)c2ccco2)c(C(c2cccnc2)N2CCC(Cc3ccccc3)CC2)c1C (stereo unspecified)"
  Endpoint: "% Cell Death"
  Reported measurement: 110
- Molecule: "CCOc1ccc2c(c1)CN(Cc1ccc(Cl)cc1)CO2"
  Endpoint: "% Cell Death"
  Reported measurement: 8
- Molecule: "O=c1nc(C=Cc2ccc(Br)cc2)oc2ccccc12"
  Endpoint: "% Cell Death"
  Reported measurement: 17
- Molecule: "Cl.Oc1ccccc1CNCC12CC3CC(CC(C3)C1)C2"
  Endpoint: "% Cell Death"
  Reported measurement: -8
- Molecule: "Cc1ccc(CSCc2ccc(C(=O)NC3CC3)o2)cc1"
  Endpoint: "% Cell Death"
  Reported measurement: 23
- Molecule: "COCCNCC(O)Cn1c2ccc(Cl)cc2c2cc(Cl)ccc21 (stereo unspecified)"
  Endpoint: "% Cell Death"
  Reported measurement: 29
- Molecule: "CCCC(c1nnnn1C1CCCCC1)N1CCN(C(=O)c2ccco2)CC1.Cl (stereo unspecified)"
  Endpoint: "% Cell Death"
  Reported measurement: -3
- Molecule: "Cc1sc(NC(=O)c2ccccc2)c(C(c2cccs2)N2CCN(c3ccccc3)CC2)c1C (stereo unspecified)"
  Endpoint: "% Cell Death"
  Reported measurement: -1
- Molecule: "COc1ccc(C2NCCc3c2[nH]c2ccccc32)cc1CN1CCN(c2ccc(F)cc2)CC1.Cl (stereo unspecified)"
  Endpoint: "% Cell Death"
  Reported measurement: 27
